Reference source: ChEMBL document CHEMBL4819017

procedure.summary: Inhibition of PI3K/mTOR in human MCF7 cells assessed as reduction of AKT phosphorylation at Thr308 residue measured after 3 hrs by western blot assay
Type: cell-based
conditions.used: MCF7, 3 h
measured.parameter: EC50 (nM)

(I) COc1ncc(-c2ccc3nccc(-c4ccnnc4)c3c2)cc1NS(=O)(=O)c1ccc(F)cc1F [OMIPALISIB]
(II) COc1ncc2cc1NS(=O)(=O)c1cccc(c1)C(=O)NCc1cncc(c1)-c1cnc3ccc-2cn13
Kindly identify the item with the lower EC50 figure among these two: I and II // output: label of the selected item II

* * *

procedure.summary: Metabolic stability in human liver microsomes assessed as parent compound remaining in presence of NADPH regenerating system at 0.5 uM measured after 15 mins by LC-MS/MS analysis
Assay type: ADME, Microsome
conditions.used: read-out: Stabilty
measured.parameter: remaining at 0.25 h, 0.5 µM (%)

[
  {
    "compound.string": "COc1ncc2cc1NS(=O)(=O)c1cccc(c1)C(=O)NCc1cncc(c1)-c1cnc3ccc-2cn13",
    "remaining at 0.25 h, 0.5 µM [%]": 100
  },
  {
    "compound.string": "COc1ncc2cc1NS(=O)(=O)c1cccc(c1)C(=O)NCc1cccc(c1)-c1ncnc3ccc-2cc13",
    "remaining at 0.25 h, 0.5 µM [%]": 97
  },
  {
    "compound.string": "COc1ncc2cc1NS(=O)(=O)c1cccc(c1)C(=O)NCc1cncc(c1)-c1ncnc3ccc-2cc13",
    "remaining at 0.25 h, 0.5 µM [%]": 80
  },
  {
    "compound.string": "COc1ncc2cc1NS(=O)(=O)c1cc(c(F)cc1F)C(=O)NCc1cncc(c1)-c1ccnc3ccc-2cc13",
    "remaining at 0.25 h, 0.5 µM [%]": 89
  }
]

* * *

procedure.summary: Half life in BALB/c mouse at 5 mg/kg, iv measured for 8 hrs
Type: ADME, organism-based
conditions.used: in vivo
measured.parameter: half-life (h)

[
  {
    "compound.string": "COc1ncc2cc1NS(=O)(=O)c1cccc(c1)C(=O)NCc1cncc(c1)-c1ncnc3ccc-2cc13",
    "measured.parameter": "half-life",
    "val": 2.91
  }
]

(P) COc1ncc2cc1NS(=O)(=O)c1cccc(c1)C(=O)NCc1cncc(c1)-c1cnc3ccc-2cn13
(Q) COc1ncc2cc1NS(=O)(=O)c1cc(c(F)cc1F)C(=O)NCc1cncc(c1)-c1ccnc3ccc-2cc13
Between these two entries, P and Q , state which has the higher half-life. // output: label of the selected item P

* * *

tested.system: PI3-kinase p110-delta/p85-alpha (Homo sapiens)
Sequence (P27986 whole entry): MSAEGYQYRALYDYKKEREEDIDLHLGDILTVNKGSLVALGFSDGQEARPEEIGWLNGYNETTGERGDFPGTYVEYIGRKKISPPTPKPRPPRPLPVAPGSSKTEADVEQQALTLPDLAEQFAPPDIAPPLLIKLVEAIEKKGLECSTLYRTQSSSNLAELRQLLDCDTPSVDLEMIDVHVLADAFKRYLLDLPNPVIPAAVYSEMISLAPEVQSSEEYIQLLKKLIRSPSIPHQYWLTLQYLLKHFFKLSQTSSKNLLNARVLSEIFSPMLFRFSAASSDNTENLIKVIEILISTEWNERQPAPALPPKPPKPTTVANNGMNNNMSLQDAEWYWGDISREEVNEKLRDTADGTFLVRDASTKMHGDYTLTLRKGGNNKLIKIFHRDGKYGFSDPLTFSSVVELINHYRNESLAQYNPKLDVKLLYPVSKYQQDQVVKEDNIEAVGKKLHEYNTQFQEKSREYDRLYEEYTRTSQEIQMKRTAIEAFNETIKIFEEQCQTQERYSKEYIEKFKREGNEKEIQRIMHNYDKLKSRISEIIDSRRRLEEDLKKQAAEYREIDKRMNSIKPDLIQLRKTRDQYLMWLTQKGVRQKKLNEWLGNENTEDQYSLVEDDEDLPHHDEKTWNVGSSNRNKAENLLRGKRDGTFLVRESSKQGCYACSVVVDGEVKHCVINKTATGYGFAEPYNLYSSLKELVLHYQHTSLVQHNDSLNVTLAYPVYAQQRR
Sequence (O00329 whole entry): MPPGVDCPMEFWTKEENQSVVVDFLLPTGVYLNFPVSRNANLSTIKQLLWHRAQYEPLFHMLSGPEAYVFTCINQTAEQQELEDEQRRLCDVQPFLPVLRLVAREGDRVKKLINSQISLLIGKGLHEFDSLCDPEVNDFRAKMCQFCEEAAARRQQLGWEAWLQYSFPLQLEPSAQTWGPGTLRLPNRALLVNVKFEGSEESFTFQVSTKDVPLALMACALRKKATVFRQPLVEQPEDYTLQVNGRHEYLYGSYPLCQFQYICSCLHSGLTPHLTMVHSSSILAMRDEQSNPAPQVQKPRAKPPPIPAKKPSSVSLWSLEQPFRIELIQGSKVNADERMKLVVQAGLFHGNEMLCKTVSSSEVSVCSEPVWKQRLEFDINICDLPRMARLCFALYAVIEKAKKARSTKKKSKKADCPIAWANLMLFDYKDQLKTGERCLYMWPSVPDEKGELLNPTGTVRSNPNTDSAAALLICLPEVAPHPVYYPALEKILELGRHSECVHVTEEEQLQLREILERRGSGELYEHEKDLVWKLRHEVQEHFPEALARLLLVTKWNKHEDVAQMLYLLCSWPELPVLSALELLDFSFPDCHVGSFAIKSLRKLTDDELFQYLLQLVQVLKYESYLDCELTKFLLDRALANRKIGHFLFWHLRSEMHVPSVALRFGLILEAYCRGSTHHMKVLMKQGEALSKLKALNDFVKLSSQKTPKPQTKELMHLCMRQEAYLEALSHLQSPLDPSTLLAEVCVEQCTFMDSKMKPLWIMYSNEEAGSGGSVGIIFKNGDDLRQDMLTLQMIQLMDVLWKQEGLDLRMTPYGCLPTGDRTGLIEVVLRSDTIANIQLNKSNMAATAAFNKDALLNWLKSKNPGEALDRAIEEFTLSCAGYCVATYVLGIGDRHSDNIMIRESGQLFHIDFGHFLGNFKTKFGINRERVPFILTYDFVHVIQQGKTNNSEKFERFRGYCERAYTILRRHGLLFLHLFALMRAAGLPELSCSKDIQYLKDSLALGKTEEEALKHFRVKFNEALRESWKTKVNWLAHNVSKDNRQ
procedure.summary: Inhibition of human p110delta/p85alpha using PIP2 as substrate in presence of ATP measured by HTRF assay
measured.parameter: pKi
Formally, pKi is defined as -log10 of the concentration c, with c in mol/L.

Entry `COc1ncc2cc1NS(=O)(=O)c1cccc(c1)C(=O)NCc1cncc(c1)-c1cnc3ccc-2cn13` : reported pKi = ? 10.22

* * *

tested.system: Serine/threonine-protein kinase mTOR (Homo sapiens, UniProt P42345)
procedure.summary: Inhibition of recombinant human GST tagged mTOR (1360 to 2549 residues) expressed in baculovirus expression system measured by LanthaScreen assay
measured.parameter: IC50 (nM)

[
  {
    "compound.string": "COc1ncc2cc1NS(=O)(=O)c1cccc(c1)C(=O)NCc1cncc(c1)-c1cnc3ccc-2cn13",
    "tested.system": "Serine/threonine-protein kinase mTOR (Homo sapiens, UniProt P42345)",
    "scale.unit": "nM",
    "IC50": 3.3
  }
]

(1) COc1ncc2cc1NS(=O)(=O)c1cccc(c1)C(=O)NCc1cccc(c1)-c1ncnc3sc-2cc13
(2) COc1ncc2cc1NS(=O)(=O)c1cccc(c1)C(=O)NCc1cccc(c1)-c1ccnc3ccc-2cc13
(3) COc1ncc2cc1NS(=O)(=O)c1cccc(c1)C(=O)NCc1cncc(c1)Cc1cnc3sc-2nn13
(4) COc1ncc2cc1NS(=O)(=O)c1cccc(c1)C(=O)NCc1cccc(c1F)-c1ccnc3ccc-2cc13
Arrange the 4 entries by IC50 so the values rise. List each label, following the requested order. 1, 2, 4, 3
